- Species on record: Cavia porcellus
- run.description: Compound was evaluated for its activity in vitro with use of isolated guinea pig tracheal spiral strips in the presence of L-cysteine (3 mM)
- Format: functional
- stated.conditions: Trachea
observation.type: EC50 (nM)

| compound | value |
| --- | --- |
| CCCCCCCc1ccccc1C/C=C/[C@H](SC[C@H](N)C(=O)NCC(=O)O)[C@H](O)CCCC(=O)O | 1870 |

[1] CCCCCCCc1cccc(C/C=C/[C@H](SC[C@H](N)C(=O)NCC(=O)O)[C@H](O)CCCC(=O)O)c1
[2] CCCCCCCc1ccc(C/C=C\[C@@H](SC[C@H](N)C(=O)NCC(=O)O)[C@@H](O)CCCC(=O)O)cc1
[3] CCCCC/C=C\C\C=C/C=C/C=C/[C@@H](SC[C@H](N)C(=O)NCC(=O)O)[C@@H](O)CCCC(=O)O [LEUKOTRIENE D4]
Query: Parameters: sort_field (EC50), sort_dir (desc). Dear reader, please state the labels in the requested order.
Result: 1, 2, 3

---

- Species: Cavia porcellus
- run.description: Compound was evaluated for its activity in vitro with use of isolated guinea pig tracheal spiral strips in the presence of L-serine borate (45 mM)
- Type: functional
- stated.conditions: Trachea
observation.type: EC50 (nM)

| compound | EC50 (nM) |
| --- | --- |
| CCCCCCOc1ccc(C/C=C/[C@H](SCC(NC(=O)CCC(N)C(=O)O)C(=O)NCC(=O)O)[C@H](O)CCCC(=O)O)cc1 (stereo not given in full) | 256 |

[P] CCCCC/C=C/c1ccc(C/C=C/[C@H](SCC(NC(=O)CCC(N)C(=O)O)C(=O)NCC(=O)O)[C@H](O)CCCC(=O)O)cc1 (stereo not given in full)
[Q] CCCCCCCc1ccc(C/C=C/[C@H](SCC(NC(=O)CCC(N)C(=O)O)C(=O)NCC(=O)O)[C@H](O)CCCC(=O)O)cc1 (stereo not given in full)
[R] CCCCCCCc1ccccc1C/C=C/[C@H](SCC(NC(=O)CCC(N)C(=O)O)C(=O)NCC(=O)O)[C@H](O)CCCC(=O)O (stereo not given in full)
Query: Endpoint returns the given compounds ordered by ascending EC50. Write the labels out in the order the request specifies.
Result: Q, P, R
